Study system: human recombinant FXa (Homo sapiens, UniProt P00742)
Sequence (P00742 235-488 limits assumed): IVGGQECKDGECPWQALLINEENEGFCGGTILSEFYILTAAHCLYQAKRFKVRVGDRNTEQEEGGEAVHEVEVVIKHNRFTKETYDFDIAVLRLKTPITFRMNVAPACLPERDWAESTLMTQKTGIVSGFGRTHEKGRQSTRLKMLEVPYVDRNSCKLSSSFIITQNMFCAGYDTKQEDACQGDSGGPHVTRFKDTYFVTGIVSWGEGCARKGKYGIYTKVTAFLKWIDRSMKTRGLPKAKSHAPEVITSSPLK
Sequence (P00742 41-179 partner limits assumed): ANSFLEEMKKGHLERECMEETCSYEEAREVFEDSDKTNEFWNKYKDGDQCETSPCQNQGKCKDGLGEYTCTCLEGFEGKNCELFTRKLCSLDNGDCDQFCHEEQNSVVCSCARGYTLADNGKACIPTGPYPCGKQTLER
Experiment description: FXa inhibitory activity assay (chromogenic substrate, 405 nm)
Conditions used: inhibitory activity on FXa, preincubated at 37° C. for 10 mins
pIC50: −log10 of the molar value.
Parameter: pIC50

>  <Smiles str>
NS(=O)(=O)c1ccccc1-c1ccc2c(c1)OC[C@H]1[C@H](CNC(=O)c3ccc(Cl)s3)OC(=O)N21

>  <Study system>
human recombinant FXa (Homo sapiens, UniProt P00742)

>  <pIC50>
7.71

$$$$

a. O=C(NC[C@@H]1OC(=O)N2c3ccc(N4CC[C@H](F)CC4=O)cc3OC[C@@H]12)c1ccc(Cl)s1
b. CS(=O)(=O)c1ccccc1-c1ccc2c(c1)OC[C@H]1[C@H](CNC(=O)c3ccc(Cl)s3)OC(=O)N21
Exam item: Could you please tell me which of these two has the higher pIC50: a or b ? Kindly state the label of the option you pick.
Marked response: b
(b: 7.92, a: 7.72)

---

Experiment description: in vivo
Conditions used: male, SD, rat, in vivo, po, 10 mg/kg
Experimental: Healthy male SD rats, body weight 200-220 g, randomly divided into 6 groups with each group 3-4 rats, were administered with the subject compound via intragastric administration and intravenous injection, respectively. The subject compound was prepared with 5% DMSO/5% Twain 80/90% saline into solution for administration. The rats were fasted for 12 hrs before experiment, free water-drinking, and were all fed 2 h after administration. Blood sampling time and sample treatment: […]
Overview of reported MRT across a group of molecules:
Give the value, in units of h, as a plain number.

>  <Molecule>
O=C(NC[C@H]1CN(c2ccc(N3CCOCC3=O)cc2)C(=O)O1)c1ccc(Cl)s1 [rivaroxaban, reference compound]

>  <MRT [h]>
7.01

$$$$

# input for lookup
Exam item: Which measured MRT value corresponds to O=C(NC[C@@H]1OC(=O)N2c3ccc(N4CCOCC4=O)cc3OC[C@@H]12)c1ccc(Cl)s1 ?
Marked response: 2.23

---

Experiment description: in vivo
Conditions used: male, SD, rat, in vivo, iv, 4.5 mg/kg
Parameter: MRT (h)
Give the value, in units of h, as a plain number.

Exam item: Which measured MRT value corresponds to O=C(NC[C@@H]1OC(=O)N2c3ccc(N4CCCCC4=O)cc3OC[C@@H]12)c1ccc(Cl)s1 ?
Marked response: 3.04

---

Experiment description: in vivo
Conditions used: male, SD, rat, in vivo, po, 9 mg/kg
Parameter: MRT (h)
Give the value, in units of h, as a plain number.

Exam item: Which measured MRT value corresponds to O=C(NC[C@@H]1OC(=O)N2c3ccc(N4CCCCC4=O)cc3OC[C@@H]12)c1ccc(Cl)s1 [Compound 2] ?
Marked response: 3.4

---

Experiment description: in vivo
Conditions used: male, SD, rat, in vivo, po, 10 mg/kg
Parameter: half-life (h)
Give the value, in units of h, as a plain number.

Exam item: Which measured half-life value corresponds to O=C(NC[C@H]1CN(c2ccc(N3CCOCC3=O)cc2)C(=O)O1)c1ccc(Cl)s1 [rivaroxaban, reference compound] ?
Marked response: 4.64

---

Study system: human recombinant FXa (Homo sapiens, UniProt P00742)
Experiment description: FXa inhibitory activity assay (chromogenic substrate, 405 nm)
Conditions used: inhibitory activity on FXa, preincubated at 37° C. for 10 mins
Protocol: Experimental principle and method: FXa cuts the Arg carboxyl end in the substrate N-Z-D-Arg-Gly-Arg-pDA in vitro and releases p-nitrophenylamine which has specific absorption at 405 nm wavelength. The amount of the […] generated is determined at 405 nm to evaluate the activity of the compound to inhibit the human recombinant FXa in vitro. Human plasma coagulation factor Xa was purchased from Calbiochem; the substrate N-Z-D-Arg-Gly-Arg-pDA was purchased from chromogenic. […]
Parameter: IC50 (nM)

>  <Smiles str>
O=C(NC[C@@H]1OC(=O)N2c3ccc(N4CCOCC4=O)cc3OC[C@@H]12)c1ccc(Cl)cc1

>  <IC50 (nM)>
12.2

$$$$
>  <Smiles str>
O=C(NC[C@@H]1OC(=O)N2c3ccc(N4CC[C@@H](F)CC4=O)cc3OC[C@@H]12)c1ccc(Cl)s1

>  <IC50 (nM)>
15

$$$$
>  <Smiles str>
O=C(NC[C@@H]1OC(=O)N2c3ccc(N4CCOCC4=O)cc3OC[C@@H]12)c1ccc(Cl)s1

>  <IC50 (nM)>
2.25

$$$$
